The entries below pair compounds with IC50 values for Histone deacetylase 1 (Homo sapiens), as found in several publications.
The label Fulfilled is reserved for IC50 strictly under 90 nM; Not fulfilled covers values equal to or above it.

compound: CCNC(=O)c1cc2c(-c3cc(C(C)(C)O)ccc3Oc3c(C)cc(F)cc3C)cn(C)c(=O)c2[nH]1
class label: Not fulfilled
--
compound: O=C(c1ccc(-c2ccc3[nH]ccc3c2)s1)C(F)(F)F
class label: Not fulfilled
--
compound: COC(=O)CCCCCCC(=O)Nc1ccc(Nc2ncc3ncn(C4CCCC4)c3n2)cc1
class label: Not fulfilled
--
compound: O=C(/C=C/c1ccc(CCNC(=O)c2ccc3[nH]cnc3c2)cc1)NO
class label: Fulfilled
--
compound: Cc1ccc(-c2cn(C)c(=O)c3[nH]c(C(=O)NCc4ccc(C(=O)Nc5ccccc5N)cc4)cc23)cc1
class label: Not fulfilled
--
compound: O=C(/C=C/c1cccc(Nc2ncnc3cc4c(cc23)OCCO4)c1)NO
class label: Not fulfilled
--
compound: CN(C)CCn1c(C2CC2c2ccccc2)nc2cc(/C=C/C(=O)NO)ccc21 (stereo not given)
class label: Not fulfilled
--
compound: C=CC(=O)Nc1cc2c(Nc3ccc(OCc4cccc(F)c4)c(Cl)c3)ncnc2cc1OCc1cn(CCC(=O)NO)nn1
class label: Not fulfilled
--
compound: CC/C=C\CCc1nc2cc(/C=C/C(=O)NO)ccc2n1CC(C)(C)CN(C)C
class label: Fulfilled
--
compound: CC(=O)SCC/C=C/[C@@H]1CC(=O)N[C@H](C)C(=O)N[C@H](C)C(=O)N[C@H](C(C)C)C(=O)NCC(=O)O1
class label: Not fulfilled
